- Tested on: HCT-116 (colon cancer) cell line
- ASSAY_PROTOCOL: MTT cell viability assay, HCT-116
- Assay type: cell-based, human
- CONDITION_SET: Homo sapiens, HCT-116, 72 h, MTT, 72 h, 1-100 µM, mean ± SD
- Protocol: Compounds 6–49 were evaluated in vitro for their effects on the viability of the three human cancer cell lines: HCT-116 (colon cancer), MCF-7 (breast cancer) and HeLa (cervical cancer) as well as the non-cancerous keratinocyte cell line (HaCaT). […] Cell viability was examined using the MTT (3-(4,5-dimethylthiazol-2-yl)-2,5-diphenyltetrazolium bromide) assay. […] Values are expressed as the mean ± SD of at least three independent experiments. […]
QUANTITY: IC50 (µM)

MOLECULE	NUMBER
Cc1cc(S(=O)(=O)N=c2[nH]c3ccccc3[nH]2)c(SCc2nc(N)nc(N3CCN(c4ccc(F)cc4)CC3)n2)cc1Cl [Compound 20]	16
COc1ccc(Nc2nc(N)nc(CSc3cc(Cl)c(C)cc3S(=O)(=O)N=c3[nH]c4ccc(Cl)cc4[nH]3)n2)cc1 [Compound 44]	48

(A) Cc1cc(S(=O)(=O)N=c2[nH]c3ccc(F)cc3[nH]2)c(SCc2nc(N)nc(N3CCN(c4ccc(Cl)cc4)CC3)n2)cc1Cl [Compound 39]
(B) CC1=NN(c2nc(N)nc(CSc3cc(Cl)c(C)cc3S(=O)(=O)N=c3[nH]c4ccc(F)cc4[nH]3)n2)C(C)(C)C1 [Compound 33]
Lookup: Lab note: check whether A or B shows the higher recorded IC50. Answer by quoting the chosen item's label.
Found: A

---

- System: MCF-7 (breast cancer) cell line
- ASSAY_PROTOCOL: MTT cell viability assay, MCF-7
- Format: cell-based, human
- CONDITION_SET: Homo sapiens, MCF7, 72 h, MTT, 72 h, 1-100 µM, mean ± SD
QUANTITY: IC50 (µM)

Please review the entries below; each comes with its answer.
SMILES_REPRESENTATION	IC50 (µM)
Cc1cc(S(=O)(=O)N=c2[nH]c3ccc(Cl)cc3[nH]2)c(SCc2nc(N)nc(N3CCN(c4ccc(Cl)c(Cl)c4)CC3)n2)cc1Cl	32
Cc1cc(S(=O)(=O)N=c2[nH]c3ccccc3[nH]2)c(SCc2nc(N)nc(N3CCN(c4ccc(F)c(Cl)c4)CC3)n2)cc1Cl	20
COc1ccccc1N1CCN(c2nc(N)nc(CSc3cc(Cl)c(C)cc3S(=O)(=O)N=c3[nH]c4ccccc4[nH]3)n2)CC1	24

(1) Cc1cc(S(=O)(=O)N=c2[nH]c3ccccc3[nH]2)c(SCc2nc(N)nc(NCc3ccccc3)n2)cc1Cl
(2) COc1ccc(Nc2nc(N)nc(CSc3cc(Cl)c(C)cc3S(=O)(=O)N=c3[nH]c4ccc(Cl)cc4[nH]3)n2)cc1
Lookup: Lab note: check whether 1 or 2 shows the higher recorded IC50. Answer by quoting the chosen item's label.
Found: 2

---

- System: MCF-7 (breast cancer) cell line
- ASSAY_PROTOCOL: MTT cell viability assay, MCF-7
- Format: cell-based, human
- CONDITION_SET: Homo sapiens, MCF7, 72 h, MTT, 72 h, 1-100 µM, mean ± SD
pIC50: −log10 of the molar value.
QUANTITY: pIC50

(1) Cc1cc(S(=O)(=O)N=c2[nH]c3ccccc3[nH]2)c(SCc2nc(N)nc(N3CCCc4ccccc43)n2)cc1Cl
(2) COc1ccc(Nc2nc(N)nc(CSc3cc(Cl)c(C)cc3S(=O)(=O)N=c3[nH]c4ccccc4[nH]3)n2)cc1
Lookup: Problem: Given the entries 1 and 2 , determine which has the lower reported pIC50. Answer by quoting the chosen item's label.
Found: 2
(2: 4.39, 1: 4.60)

(1) Cc1cc(S(=O)(=O)N=c2[nH]c3ccccc3[nH]2)c(SCc2nc(N)nc(N3CCN(c4ccc(Cl)cc4)CC3)n2)cc1Cl
(2) Cc1cc(S(=O)(=O)N=c2[nH]c3ccc(F)cc3[nH]2)c(SCc2nc(N)nc(N(C)c3ccc(Cl)cc3)n2)cc1Cl
Lookup: Lab note: check whether 1 or 2 shows the higher recorded pIC50. Answer by quoting the chosen item's label.
Found: 1

---

- System: HCT-116 (colon cancer) cell line
- ASSAY_PROTOCOL: MTT cell viability assay, HCT-116
- Format: cell-based, human
- CONDITION_SET: Homo sapiens, HCT-116, 72 h, MTT, 72 h, 1-100 µM, mean ± SD
pIC50: −log10 of the molar value.
QUANTITY: pIC50

Please review the entries below; each comes with its answer.
SMILES_REPRESENTATION	TARGET_OR_SYSTEM	pIC50
Cc1cc(S(=O)(=O)N=c2[nH]c3ccc(Cl)cc3[nH]2)c(SCc2nc(N)nc(N3CCN(c4ccc(Cl)c(Cl)c4)CC3)n2)cc1Cl	HCT-116 (colon cancer) cell line	4.47
Cc1cc(S(=O)(=O)N=c2[nH]c3ccccc3[nH]2)c(SCc2nc(N)nc(N(C)c3ccccc3)n2)cc1Cl	HCT-116 (colon cancer) cell line	4.48
Cc1cc(S(=O)(=O)N=c2[nH]c3ccccc3[nH]2)c(SCc2nc(N)nc(N3CCOCC3)n2)cc1Cl	HCT-116 (colon cancer) cell line	4.12
CC1=NN(c2nc(N)nc(CSc3cc(Cl)c(C)cc3S(=O)(=O)N=c3[nH]c4ccc(Cl)cc4[nH]3)n2)C(C)(C)C1	HCT-116 (colon cancer) cell line	4.60
Cc1cc(S(=O)(=O)N=c2[nH]c3ccccc3[nH]2)c(SCc2nc(N)nc(N3CCN(c4ccccc4F)CC3)n2)cc1Cl	HCT-116 (colon cancer) cell line	4.82
Cc1cc(S(=O)(=O)N=c2[nH]c3ccccc3[nH]2)c(SCc2nc(N)nc(N(C)c3ccc(Cl)cc3)n2)cc1Cl	HCT-116 (colon cancer) cell line	4.54
Cc1cc(S(=O)(=O)N=c2[nH]c3ccccc3[nH]2)c(SCc2nc(N)nc(Nc3ccc(Cl)cc3)n2)cc1Cl	HCT-116 (colon cancer) cell line	4.49
Cc1cc(S(=O)(=O)N=c2[nH]c3ccc(F)cc3[nH]2)c(SCc2nc(N)nc(N3CCc4ccccc43)n2)cc1Cl	HCT-116 (colon cancer) cell line	4.77
Cc1cc(S(=O)(=O)N=c2[nH]c3ccccc3[nH]2)c(SCc2nc(N)nc(N3CCN(c4ccc(F)c(Cl)c4)CC3)n2)cc1Cl	HCT-116 (colon cancer) cell line	4.77
Cc1cc(S(=O)(=O)N=c2[nH]c3ccc(Cl)cc3[nH]2)c(SCc2nc(N)nc(N3CCN(c4ccccc4)CC3)n2)cc1Cl	HCT-116 (colon cancer) cell line	4.82

(A) Cc1cc(S(=O)(=O)N=c2[nH]c3ccc(Cl)cc3[nH]2)c(SCc2nc(N)nc(N3CCN(c4ccc(C(F)(F)F)cc4)CC3)n2)cc1Cl
(B) COc1ccc(Nc2nc(N)nc(CSc3cc(Cl)c(C)cc3S(=O)(=O)N=c3[nH]c4ccccc4[nH]3)n2)cc1
Lookup: Problem: Given the entries A and B , determine which has the lower reported pIC50. Answer by quoting the chosen item's label.
Found: B
(B: 4.27, A: 4.68)

---

- Test system: MCF-7 (breast cancer) cell line
- ASSAY_PROTOCOL: MTT cell viability assay, MCF-7
- Assay type: cell-based, human
- CONDITION_SET: Homo sapiens, MCF7, 72 h, MTT, 72 h, 1-100 µM, mean ± SD
QUANTITY: IC50 (µM)

Please review the entries below; each comes with its answer.
SMILES_REPRESENTATION	TARGET_OR_SYSTEM	NUMBER
Cc1cc(S(=O)(=O)N=c2[nH]c3ccccc3[nH]2)c(SCc2nc(N)nc(N3CCN(c4cccc(Cl)c4)CC3)n2)cc1Cl	MCF-7 (breast cancer) cell line	20
Cc1cc(S(=O)(=O)N=c2[nH]c3ccccc3[nH]2)c(SCc2nc(N)nc(N(C)C)n2)cc1Cl	MCF-7 (breast cancer) cell line	52

(1) Cc1cc(S(=O)(=O)N=c2[nH]c3ccc(F)cc3[nH]2)c(SCc2nc(N)nc(Nc3cccc(Cl)c3)n2)cc1Cl
(2) Cc1cc(S(=O)(=O)N=c2[nH]c3ccccc3[nH]2)c(SCc2nc(N)nc(Nc3ccc(Cl)cc3)n2)cc1Cl
Lookup: Problem: Given the entries 1 and 2 , determine which has the lower reported IC50. Answer by quoting the chosen item's label.
Found: 2
(2: 24 µM, 1: 40 µM)

---

- Tested on: MCF-7 (breast cancer) cell line
- ASSAY_PROTOCOL: MTT cell viability assay, MCF-7
- Assay type: cell-based, human
- CONDITION_SET: Homo sapiens, MCF7, 72 h, MTT, 72 h, 1-100 µM, mean ± SD
pIC50: −log10 of the molar value.
QUANTITY: pIC50

SMILES_REPRESENTATION	TARGET_OR_SYSTEM	QUANTITY	NUMBER
CC1=NN(c2nc(N)nc(CSc3cc(Cl)c(C)cc3S(=O)(=O)N=c3[nH]c4ccc(F)cc4[nH]3)n2)C(C)(C)C1	MCF-7 (breast cancer) cell line	pIC50	4.46
Cc1cc(S(=O)(=O)N=c2[nH]c3ccccc3[nH]2)c(SCc2nc(N)nc(N3CCN(C(c4ccccc4)c4ccccc4)CC3)n2)cc1Cl	MCF-7 (breast cancer) cell line	pIC50	4.34

(A) Cc1cc(S(=O)(=O)N=c2[nH]c3ccccc3[nH]2)c(SCc2nc(N)nc(N3CCN(c4ccccc4F)CC3)n2)cc1Cl
(B) CC1=NN(c2nc(N)nc(CSc3cc(Cl)c(C)cc3S(=O)(=O)N=c3[nH]c4ccc(Cl)cc4[nH]3)n2)C(C)(C)C1
Lookup: Problem: Given the entries A and B , determine which has the lower reported pIC50. Answer by quoting the chosen item's label.
Found: B
(B: 4.42, A: 4.62)
